- experimentDescription: qHTS assay to identify small molecule agonists of the constitutive androstane receptor (CAR) signaling pathway - cell viability counter screen (AID 1224836); also: nearly all actives have a fitted effect of over 45% in size
- conditionContext: HepG2-CYP2B6-hCAR viability, CellTiter-Fluor, 23 h, PK11195 added to every well; series mostly up to 92.4 µM
Inconclusive results are not listed. Calls of active or inactive are those of the source. Calls follow the shape of the dose curve; as a rule, active = well fitted cell-killing curve with a large enough effect in the repeat runs; inconclusive = weak or mixed curves, or effect the other way; inactive = flat fitted curve, though single readings scatter.
Labels: active, inactive

{"compound": "CCC1OCC(COc2ccc(Oc3ccccc3)cc2)O1 (stereo unspecified)", "class": "inactive"}
{"compound": "N=C1N=C(N)c2ccccc21", "class": "active"}
{"compound": "COc1cc(-c2ccc(N=C=O)c(OC)c2)ccc1N=C=O", "class": "inactive"}
{"compound": "O=c1c(-c2ccccc2)c1-c1ccccc1", "class": "inactive"}
{"compound": "Cc1cc(CCN2CCN(c3nsc4ccccc34)CC2)cc2c1NC(=O)CC2(C)C", "class": "active"}
{"compound": "N=C1C=CC(=C(c2ccc(N)cc2)c2ccc(N)cc2)C=C1", "class": "active"}

###

- experimentDescription: qHTS assay to identify small molecule agonists of the sonic hedgehog signaling (Shh) pathway - cell viability counter screen (AID 1259366); also: nearly all actives have a fitted effect of over 50% in size
- conditionContext: NIH/3T3 Gli1-Luc viability, CellTiter-Fluor, 24 h; series mostly up to 92.4 µM
- Text: National Center for Advancing Translational Sciences [NCATS] NIH Chemical Genomics Center [NCGC] U.S. Environmental Protection Agency [EPA] National Institutes of Environmental Health Sciences [NIEHS] National Toxicology Program [NTP] U.S. Food and Drug Administration [FDA] The sonic hedgehog (Shh) pathway is essential for normal embryonic development. Dysregulation of the Shh pathway can cause severe developmental defects in organs. […]
Records with an inconclusive call do not appear. Calls of active or inactive are those of the source. Calls follow the shape of the dose curve; as a rule, active = well fitted cell-killing curve with a large enough effect in the repeat runs; inconclusive = weak or mixed curves, or effect the other way; inactive = flat fitted curve, though single readings scatter.
Labels: t (active), f (inactive)

{"cpdSmiles": "Cc1cccc(S(=O)(=O)O)c1C", "class": "f"}
{"cpdSmiles": "O=C(NOCC1CC1)c1ccc(F)c(F)c1Nc1ccc(I)cc1Cl", "class": "f"}
{"cpdSmiles": "N=C1N=C(N)c2cc3ccccc3cc21", "class": "t"}
{"cpdSmiles": "O=C(Nc1cccc([N+](=O)[O-])c1)c1cc2ccccc2cc1O", "class": "f"}
{"cpdSmiles": "CCc1oc2ccccc2c1C(=O)c1cc(Br)c(O)c(Br)c1", "class": "f"}
{"cpdSmiles": "C[n+]1ccn(Cc2ccccc2)c1", "class": "f"}
{"cpdSmiles": "OCc1c[nH]c2ccccc12", "class": "f"}
{"cpdSmiles": "[Cl][Bi]([Cl])([c]1ccccc1)([c]1ccccc1)[c]1ccccc1", "class": "t"}
{"cpdSmiles": "CCOC(=O)/C=C(C)/C=C/C=C(C)/C=C/c1c(C)cc(OC)c(C)c1C", "class": "f"}
{"cpdSmiles": "O=C(O)c1ccc(Cl)c(Cl)c1", "class": "f"}
{"cpdSmiles": "Cc1cc(O)c(C(C)(C)C)cc1C(C)(C)C", "class": "t"}
{"cpdSmiles": "CCN(C(=O)N(CC)c1ccccc1)c1ccccc1", "class": "f"}
{"cpdSmiles": "CSc1cnc(C)cn1", "class": "f"}

###

- experimentDescription: qHTS assay for small molecules that induce genotoxicity in human embryonic kidney cells expressing luciferase-tagged ATAD5 - cell viability (AID 651634); also: nearly all actives have a fitted effect of over 25% in size
- conditionContext: HEK293T ATAD5-luc cells viability, CellTiter-Fluor, 15.5 h; series mostly up to 83.3 µM
Results filed as inconclusive are left out. The source made the active and inactive calls. Calls come from the whole dose curve.
Labels: Y for active, N for inactive

{"compound": "N=C1N=C(N)c2cc3ccccc3cc21", "class": "N"}
{"compound": "C=CC(=O)OCC(CO)(COCC(COC(=O)C=C)(COC(=O)C=C)COC(=O)C=C)COC(=O)C=C", "class": "Y"}
{"compound": "CCN(CCC#N)c1ccc(N=Nc2c(Cl)cc([N+](=O)[O-])cc2Cl)cc1", "class": "Y"}
{"compound": "NC(=O)CC[C@@H]1NC(=O)[C@H](Cc2ccccc2)NC(=O)[C@H](Cc2ccc(O)cc2)NC(=O)CCSSC[C@@H](C(=O)N2CCC[C@H]2C(=O)N[C@@H](CCCN=C(N)N)C(=O)NCC(N)=O)NC(=O)[C@H](CC(N)=O)NC1=O", "class": "N"}
{"compound": "CCCCCCCCCCCC[N+](C)(C)CCCCCCCCCCCC", "class": "Y"}
{"compound": "CCC(Cl)C(Cl)C(Cl)CC(Cl)C(Cl)C(C)Cl (stereo not given)", "class": "N"}
{"compound": "O=C(Oc1cccc2cccnc12)c1ccccc1", "class": "N"}
{"compound": "Nc1ccc(N)c2ccccc12", "class": "Y"}
{"compound": "C/C=C1/C(=O)C[C@H]2[C@@H]3CCC4=CC(=O)CC[C@]4(C)[C@H]3CC[C@]12C", "class": "N"}
{"compound": "CCCCCCOC(=O)c1ccc(O)cc1", "class": "N"}
{"compound": "C=C(C)C(=O)OCC(O)COc1ccc(C(C)(C)c2ccc(OCC(O)COC(=O)C(=C)C)cc2)cc1 (stereo not given)", "class": "Y"}
{"compound": "O=C(NOCC1CC1)c1ccc(F)c(F)c1Nc1ccc(I)cc1Cl", "class": "N"}
{"compound": "CC(NN)c1ccccc1 (stereo not given)", "class": "N"}
{"compound": "CC(=O)S[C@@H]1CC2=CC(=O)CC[C@]2(C)[C@H]2CC[C@@]3(C)[C@@H](CC[C@@]34CCC(=O)O4)[C@H]12", "class": "N"}
{"compound": "CCCCCCCCCCCCCC[P+](CCCC)(CCCC)CCCC (tested in a mixture with another compound)", "class": "Y"}
{"compound": "Cc1ccc(-n2nc(C(C)(C)C)cc2NC(=O)Nc2ccc(OCCN3CCOCC3)c3ccccc23)cc1", "class": "N"}
{"compound": "CC(C)(C)c1ccc(C(=O)CCCN2CCC(OC(c3ccccc3)c3ccccc3)CC2)cc1", "class": "N"}
{"compound": "CS(=O)(=O)CCNCc1ccc(-c2ccc3ncnc(Nc4ccc(OCc5cccc(F)c5)c(Cl)c4)c3c2)o1", "class": "N"}
{"compound": "O=C(OCC1CO1)C1CCCCC1C(=O)OCC1CO1 (stereo not given)", "class": "N"}
{"compound": "O=C1c2c(O)ccc(Nc3ccc(CCO)cc3)c2C(=O)c2c([N+](=O)[O-])ccc(O)c21", "class": "Y"}
